OUTCOME MEASURE: melting point

Here is how some molecules turned out for melting point.
*Q* I'd like to know its melting point. The molecule in question is Nc1cccc(C(=O)N2CC3CC(CN(Cc4ccccc4)C3)C2)c1
*A* 178 °C

*Q* Report melting point for CCCCNC(=O)[C@@H](C[C@H](O)[C@H](CC1CCCCC1)NC(=O)OC(C)(C)C)C(C)(C)O please.
*A* 91 to 93 °C

*Q* State the recorded melting point for this entry: CC(C(=O)OC(C)(C)C)C(C)(O)c1ccc(Cl)nc1NC(=O)C(C)(C)C (centres undefined)
*A* 146 to 148 °C

*Q* What value of melting point has been recorded for this entry: CN1C(=O)CCC2(C)c3ccc(Sc4ccccc4Cl)cc3CCC12 (single isomer, unassigned; (+))
*A* 123 to 125 °C

*Q* Please report the recorded melting point for Oc1ccccc1C=NC1=NN(c2cnc3ccccc3c2)CC1 .
*A* 288 to 289 °C

Continuing:
*Q* # get_value(readout='melting point', item= COc1ccc(C(C)=NOCc2cccc(F)c2)cc1F )
*A* 67 °C

*Q* What melting point value was documented for this molecule, C(=C\c1ccc(N2CCCC2)cc1)/CC1CCN(Cc2ccccc2)CC1 ?
*A* 115 to 117 °C

*Q* Return reported melting point; argument: CC(C)(C)OC(=O)NCCCCC(NC(=O)OCc1ccccc1)C(N)=O (centres undefined)
*A* 140 to 142 °C

*Q* # input molecule: CCCCCNS(=O)(=O)NC(=O)OCc1ccc(OCCOC)cc1Oc1ncc(C(F)(F)F)cc1Cl ; wanted: its melting point
*A* 153 to 155 °C

*Q* Which melting point value is on record for CC(=O)c1cccc(NC(=O)NC2N=C(c3ccccc3F)c3cccc(C)c3N(CC(=O)N3CC4CCC(CC4)C3)C2=O)c1 (centres undefined) ?
*A* > 250 °C

*Q* Return reported melting point; argument: N#Cc1ccccc1-c1ccc(CO)cn1
*A* 152 to 153 °C

*Q* // returns reported melting point for input O=C(O)[C@@H]1CC[C@H](n2nc(-c3c(-c4ccccc4)nn4ccccc34)ccc2=O)C(=O)C1 (relative stereo)
*A* 186 to 188 °C

*Q* // returns reported melting point for input COc1cc(C)nc2c(OC)cc(Br)cc12
*A* 167 to 168 °C
